tested on: T1, IL-2Rβ/γ-Fc heterodimer (IL-2Rβ-Fc-hole with IL-2Rγ-Fc-knob)
T1 construct: Co-expressed in HEK293 cells and purified with Protein A and Superdex 200
T1 sequence (chain, as listed by the source limits assumed, chain 1 of 2): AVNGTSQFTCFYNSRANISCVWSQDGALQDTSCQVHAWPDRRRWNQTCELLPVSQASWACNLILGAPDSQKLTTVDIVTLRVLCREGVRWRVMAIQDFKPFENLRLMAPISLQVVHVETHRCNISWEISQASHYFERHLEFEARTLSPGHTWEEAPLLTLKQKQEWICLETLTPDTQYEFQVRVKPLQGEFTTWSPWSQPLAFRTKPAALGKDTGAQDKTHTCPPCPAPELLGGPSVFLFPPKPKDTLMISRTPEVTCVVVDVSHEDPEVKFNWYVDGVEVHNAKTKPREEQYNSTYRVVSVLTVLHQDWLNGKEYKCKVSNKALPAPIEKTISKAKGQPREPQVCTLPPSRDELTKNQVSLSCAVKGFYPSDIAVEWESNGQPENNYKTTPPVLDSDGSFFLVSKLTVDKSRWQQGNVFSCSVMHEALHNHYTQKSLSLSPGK
T1 sequence (chain, as listed by the source limits assumed, chain 2 of 2): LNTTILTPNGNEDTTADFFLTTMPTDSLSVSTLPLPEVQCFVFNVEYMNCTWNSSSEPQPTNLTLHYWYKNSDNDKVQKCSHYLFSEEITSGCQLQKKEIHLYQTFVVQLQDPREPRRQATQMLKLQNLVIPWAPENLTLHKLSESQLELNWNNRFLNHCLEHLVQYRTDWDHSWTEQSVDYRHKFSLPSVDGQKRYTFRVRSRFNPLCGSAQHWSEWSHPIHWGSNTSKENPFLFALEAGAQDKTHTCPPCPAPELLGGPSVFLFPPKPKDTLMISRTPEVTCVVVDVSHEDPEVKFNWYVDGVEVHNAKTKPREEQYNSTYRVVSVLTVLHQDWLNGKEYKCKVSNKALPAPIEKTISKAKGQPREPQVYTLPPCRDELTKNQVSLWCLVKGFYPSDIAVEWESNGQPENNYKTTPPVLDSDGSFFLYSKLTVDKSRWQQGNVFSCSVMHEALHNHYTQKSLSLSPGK
assay overview: SPR (Biacore), IL-2Rβ/γ-Fc captured on Protein A chip, 1:1 model
Description: The Protein A sensor chip (GE, Cat #29127556) of the Biacore instrument (Biacore T200, GE) was used to capture IL-2Rβ/γ-Fc, wherein IL-2Rβ/γ-Fc was diluted with 1×HBS-EP to 1 μg/mL, and flowed at a flow rate of 10 μL/min for 30 seconds. […] The Biacore instrument (Biacore X100, GE) was used to detect the reaction in real time, to obtain association and dissociation curves. After each cycle of dissociation was completed, the chip was washed and regenerated with 10 mM Gly-HCl pH 1.5.
reported endpoint: koff (s⁻¹)
Respond numerically; units are s⁻¹ and should not be typed.

As a guide, the following entries are already answered.
binder | numeric value
IL-2-04 (L70C/P82C) (ligand, The entry already carries the mutations and C125A and begins with M. Made in E. coli) MAPTSSSTKKTQLQLEHLLLDLQMILNGINNYKNPKLTRMLTFKFYMPKKATELKHLQCLEEELKPLEEVCNLAQSKNFHLRCRDLISNINVIVLELKGSETTFMCEYADETATIVEFLNRWITFAQSIISTLT | 0.00015
IL-2-08 (F42A/L72G) (ligand, The entry already carries the mutations and C125A and begins with M. Made in E. coli) MAPTSSSTKKTQLQLEHLLLDLQMILNGINNYKNPKLTRMLTAKFYMPKKATELKHLQCLEEELKPLEEVLNGAQSKNFHLRPRDLISNINVIVLELKGSETTFMCEYADETATIVEFLNRWITFAQSIISTLT | 0.000206
IL-2-10 (N26Q/N30S/F42A/L72G) (ligand, The entry already carries the mutations and C125A and begins with M. Made in E. coli) MAPTSSSTKKTQLQLEHLLLDLQMILQGINSYKNPKLTRMLTAKFYMPKKATELKHLQCLEEELKPLEEVLNGAQSKNFHLRPRDLISNINVIVLELKGSETTFMCEYADETATIVEFLNRWITFAQSIISTLT | 0.00043

Item IL-2-05 (G27C/F78C) (ligand, The entry already carries the mutations and C125A and begins with M. Made in E. coli) MAPTSSSTKKTQLQLEHLLLDLQMILNCINNYKNPKLTRMLTFKFYMPKKATELKHLQCLEEELKPLEEVLNLAQSKNCHLRPRDLISNINVIVLELKGSETTFMCEYADETATIVEFLNRWITFAQSIISTLT : provide koff
9.68e-05
